// data source = PubChem BioAssay (NCI)

System: MOLT-4 leukemia
Assay: NCI tumour cell line growth inhibition, 48 h
Parameter TGI: see the listing below.

compound	TGI
ClC(Cl)c1nc(-c2ccccc2)n2nc(-c3ccccc3)cc2n1	> 100 µM
COC(=O)C1=C(C(=O)OC)SC(=C(Cl)C(=S)Oc2ccccc2N)S1	> 50 µM
O=P1(N(CCCl)CCCl)Oc2ccc(Cl)cc2Sc2c(ccc(Cl)c2Cl)O1 (stereo not drawn)	> 100 µM

====

// values below are reported GI50
Tested on: SNB-75 CNS
Experiment: NCI tumour cell line growth inhibition, 48 h

structureAsSmiles	systemTested	GI50
COc1cc2c(cc1O)CC[C@@H]1[C@@H]2CC[C@]2(C)[C@@H](OCCCN(C)C)CC[C@@H]12	SNB-75 CNS	0.0768 µM
Cc1ccc2cc3c(cc(C)c4ccccc43)c3c2c1CC3	SNB-75 CNS	26.7 µM
O=C(Nc1ccc(F)cc1F)c1cc(F)ccc1O	SNB-75 CNS	3.19 µM
